// provenance: patent US20260055079A1

target: His-GST-PARP7 (Homo sapiens (Human)); test: PARP7 biochemical assay; conditions: read-out: PARP7 IC50
Sequence (Q7Z3E1 whole entry): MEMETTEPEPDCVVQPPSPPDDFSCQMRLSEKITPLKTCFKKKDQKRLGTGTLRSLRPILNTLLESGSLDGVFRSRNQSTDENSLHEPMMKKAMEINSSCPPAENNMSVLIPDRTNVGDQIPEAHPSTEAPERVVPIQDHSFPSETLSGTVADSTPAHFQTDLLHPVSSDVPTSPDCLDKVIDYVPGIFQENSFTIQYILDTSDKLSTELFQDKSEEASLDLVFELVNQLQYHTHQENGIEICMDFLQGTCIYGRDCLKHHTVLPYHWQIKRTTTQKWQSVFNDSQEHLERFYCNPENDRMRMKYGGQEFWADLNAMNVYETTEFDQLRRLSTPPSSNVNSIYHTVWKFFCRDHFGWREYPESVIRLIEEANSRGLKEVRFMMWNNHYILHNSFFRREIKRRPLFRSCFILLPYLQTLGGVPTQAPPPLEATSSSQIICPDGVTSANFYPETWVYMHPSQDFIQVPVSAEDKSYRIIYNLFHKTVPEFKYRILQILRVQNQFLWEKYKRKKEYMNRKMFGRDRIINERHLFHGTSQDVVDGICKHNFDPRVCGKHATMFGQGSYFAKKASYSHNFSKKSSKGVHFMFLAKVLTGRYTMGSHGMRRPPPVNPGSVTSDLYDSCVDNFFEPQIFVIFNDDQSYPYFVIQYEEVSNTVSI
readout: IC50

compound: CC#Cc1ccc2c(=O)[nH]nc(Cc3ccc(F)c(C(=O)N4CCn5c(nnc5C(F)(F)F)C4)c3)c2c1 [Example 65]
observed measurement: < 50 nM
--
compound: O=C(c1cc(Cc2n[nH]c(=O)c3ccc(OC4CCC4)cc23)ccc1F)N1CCC2C1CCN2C(=O)C1CC1 (stereo not shown) [Example 109]
observed measurement: 100 to 500 nM
--
compound: N#Cc1ccc(N2CCN(C(=O)c3cc(Cc4n[nH]c(=O)c5ccc(C6CC6)cc45)ccc3F)CC2)nc1 [Example 40]
observed measurement: < 50 nM
--
compound: O=C(c1cc(Cc2n[nH]c(=O)c3ccc(OC4CCC4)cc23)ccc1F)N1CCN(c2ccc(C(F)(F)F)nn2)CC1 [Example 158]
observed measurement: < 50 nM
--
compound: N#Cc1ccc(N2C[C@H]3CC[C@@H](C2)N3C(=O)c2cc(Cc3n[nH]c(=O)c4ccc(OC5CCC5)cc34)ccc2F)nc1 [Example 96]
observed measurement: < 50 nM
--
compound: N#Cc1cncc(N2CCN(C(=O)c3cc(Cc4n[nH]c(=O)c5ccc(OC6CCC6)cc45)ccc3F)CC2)c1 [Example 141]
observed measurement: 50 to 100 nM
--
compound: O=C(c1cc(Cc2n[nH]c(=O)c3ccc(OC4CCC4)cc23)ccc1F)N1CC2CCC1CN2c1ncc(C(F)(F)F)cn1 (stereo not shown) [Example 144]
observed measurement: < 50 nM
